Target: human plasma kallikrein (Homo sapiens)
Sequence (P03952 391-638 limits assumed): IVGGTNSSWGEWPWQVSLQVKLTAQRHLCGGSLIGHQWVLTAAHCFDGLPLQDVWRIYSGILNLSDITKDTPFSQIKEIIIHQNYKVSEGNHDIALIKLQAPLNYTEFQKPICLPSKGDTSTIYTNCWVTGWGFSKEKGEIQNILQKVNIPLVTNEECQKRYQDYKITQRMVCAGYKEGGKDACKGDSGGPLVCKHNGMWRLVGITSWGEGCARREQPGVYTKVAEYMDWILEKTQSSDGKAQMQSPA
Sequence (P03952 20-390 partner limits assumed): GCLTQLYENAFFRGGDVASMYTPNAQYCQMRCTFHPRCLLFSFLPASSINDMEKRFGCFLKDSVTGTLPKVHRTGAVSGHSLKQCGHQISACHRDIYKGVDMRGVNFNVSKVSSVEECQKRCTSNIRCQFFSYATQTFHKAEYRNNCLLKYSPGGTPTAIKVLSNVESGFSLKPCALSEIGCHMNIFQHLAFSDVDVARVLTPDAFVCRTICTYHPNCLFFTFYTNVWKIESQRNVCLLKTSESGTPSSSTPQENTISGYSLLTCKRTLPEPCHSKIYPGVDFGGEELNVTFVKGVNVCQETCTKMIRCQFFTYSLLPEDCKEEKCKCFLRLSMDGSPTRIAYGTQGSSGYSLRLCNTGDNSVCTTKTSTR
Assay: Plasma kallikrein enzyme inhibition assay (chromogenic substrate S-2302), Ki
Settings: purified human plasma kallikrein, substrate S-2302, pH 7.5
pKi: −log10 of the molar value. Where a name gives a salt, the structure may show the parent alone.

>  <compound>
CC(C)(C)OC(=O)NCC[C@H]1Nc2cccc(c2)[C@@H](n2cnc(-c3cc(Cl)ccc3-n3cc(Cl)nn3)cc2=O)CCCCCNC1=O

>  <pKi>
6.37

$$$$
>  <compound>
CC(C)(C)OC(=O)N1CCN2c3cccc(c3)[C@@H](n3cnc(-c4c(-n5cc(Cl)nn5)ccc(Cl)c4F)cc3=O)CCCCCNC(=O)[C@H]2C1

>  <pKi>
6.46

$$$$
>  <compound>
O=C1NCCCC[C@H](n2cnc(-c3c(-n4cc(Cl)nn4)ccc(Cl)c3F)cc2=O)c2cc(F)cc(c2)N2C(=O)CC[C@H]12

>  <pKi>
5.28

$$$$
>  <compound>
Cc1c(C(=O)N[C@H]2CCCCCNC(=O)[C@H]3CN(C(=O)OC(C)(C)C)CCN3c3cccc2c3)cnn1-c1cccc(Cl)c1F

>  <pKi>
5.42

$$$$
>  <compound>
O=C1NCCCCC[C@H](n2cnc(-c3cc(Cl)ccc3-n3cc(Cl)nn3)cc2=O)c2cccc(c2)N2CCC[C@H]12

>  <pKi>
6.88

$$$$
>  <compound>
O=C1NCCCCC[C@H](n2cnc(-c3cc(Cl)ccc3-n3cc(Cl)nn3)cc2=O)c2cccc(c2)N2CCN(C3COC3)C[C@H]12

>  <pKi>
6.28

$$$$
>  <compound>
COC(=O)NCC[C@H]1Nc2cccc(c2)[C@@H](n2cnc(-c3cc(Cl)ccc3-n3cc(Cl)nn3)cc2=O)CCCCCNC1=O

>  <pKi>
7.08

$$$$
>  <compound>
O=C(NCC[C@H]1Nc2cccc(c2)[C@@H](n2cnc(-c3cc(Cl)ccc3-n3cc(Cl)nn3)cc2=O)CCCCCNC1=O)c1ccn(C(F)F)n1

>  <pKi>
7.31

$$$$
>  <compound>
O=C1CN2c3cccc(c3)[C@@H](n3cnc(-c4cc(Cl)ccc4-n4cc(Cl)nn4)cc3=O)CCCCCNC(=O)C2CN1 (stereo partly drawn)

>  <pKi>
5.17

$$$$
>  <compound>
O=C1NCCCCC[C@H](n2cnc(-c3cc(Cl)ccc3-n3cc(Cl)nn3)cc2=O)c2cccc(c2)N2CCNC[C@@H]12 [Example 2, hydrochloride]

>  <pKi>
5.14

$$$$
>  <compound>
CC(C)(C)OC(=O)CN1CCN2c3cccc(c3)[C@@H](n3cnc(-c4cc(Cl)ccc4-n4cc(Cl)nn4)cc3=O)CCCCCNC(=O)[C@H]2C1

>  <pKi>
6.34

$$$$
>  <compound>
COC(=O)N1CCN2c3cccc(c3)[C@@H](n3cnc(-c4cc(Cl)ccc4-n4cc(Cl)nn4)cc3=O)CCCCCNC(=O)[C@H]2C1

>  <pKi>
6.06

$$$$
